- assay.procedure: MTT cytotoxicity assay in MCF7 cells
- Format: cell-based
- assay.conditions: human, MCF7, 24 hours treatment
readout.name: EC50 at 24 h
Include the unit after the number when you answer.

# input EC50 at 24 h for CN1C(=O)[C@]2(Cc3cn([C@]45C[C@@]67SS[C@@](CO)(C(=O)N6[C@H]4Nc4ccccc45)N(C)C7=O)c4ccccc34)SS[C@@]1(CO)C(=O)N2C [chetomin, reference compound] ?
# output 200 nM

###

- assay.procedure: MTT cytotoxicity assay in A549 cells
- Format: cell-based
- assay.conditions: human, A549 cells; A549, 48 h treatment, serum free F-12K medium
Reported EC50 at 48 h values are given for each entry in this list.
# unit: µM | format: bare number

>  <molecule>
CN1C(=O)[C@]2(Cc3cn([C@]45C[C@@]67SS[C@@](CO)(C(=O)N6[C@H]4Nc4ccccc45)N(C)C7=O)c4ccccc34)SS[C@@]1(CO)C(=O)N2C [chetomin, reference compound]

>  <EC50 at 48 h [µM]>
0.9

$$$$

Now for a further molecule.
# input EC50 at 48 h for CN1C(=O)[C@]2(Cc3ccc(CCc4ccc(C[C@@]56SS[C@@](CO)(C(=O)N5C)N(C)C6=O)cc4)cc3)SS[C@@]1(CO)C(=O)N2C (racemic) [LS72] ?
# output 2.8

###

- measured.target: GST-tagged CH1 domain of human p300 (aa residues 323-423) (Homo sapiens)
- Sequence (Q09472 323-423): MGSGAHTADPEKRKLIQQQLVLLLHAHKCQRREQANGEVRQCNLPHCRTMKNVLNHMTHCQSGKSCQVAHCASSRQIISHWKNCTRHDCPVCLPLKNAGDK
readout.name: pKd
Keep in mind that pKd stands for -log10 of concentration in molar terms.

>  <compound>
CN1C(=O)[C@]2(Cc3ccc(CCc4ccc(C[C@@]56SS[C@@](CO)(C(=O)N5C)N(C)C6=O)cc4)cc3)SS[C@@]1(CO)C(=O)N2C (racemic) [LS72]

>  <observed.result>
5.44

$$$$

Now for a further compound.
# input pKd for CN1C(=O)[C@@]2(CO)SS[C@@]1(Cc1ccc(C[C@@]34SS[C@](CO)(C(=O)N3C)N(C)C4=O)cc1)C(=O)N2C (racemic) [LS69] ?
# output 5.96

###

- assay.procedure: MTT cytotoxicity assay in MCF7 cells
- Assay type: cell-based
- assay.conditions: human, MCF7, 24 h treatment
readout.name: EC50 at 24 h (nM)
# unit: nM | format: bare number

# input EC50 at 24 h for CN1C(=O)[C@]2(Cc3ccc(CCc4ccc(C[C@@]56SS[C@@](CO)(C(=O)N5C)N(C)C6=O)cc4)cc3)SS[C@@]1(CO)C(=O)N2C (racemic) ?
# output 547
